Data origin, for the record: patent EP1032561B1

- system: NK1 receptor (Homo sapiens, UniProt P25103)
- Sequence (P25103 whole entry, species assumed): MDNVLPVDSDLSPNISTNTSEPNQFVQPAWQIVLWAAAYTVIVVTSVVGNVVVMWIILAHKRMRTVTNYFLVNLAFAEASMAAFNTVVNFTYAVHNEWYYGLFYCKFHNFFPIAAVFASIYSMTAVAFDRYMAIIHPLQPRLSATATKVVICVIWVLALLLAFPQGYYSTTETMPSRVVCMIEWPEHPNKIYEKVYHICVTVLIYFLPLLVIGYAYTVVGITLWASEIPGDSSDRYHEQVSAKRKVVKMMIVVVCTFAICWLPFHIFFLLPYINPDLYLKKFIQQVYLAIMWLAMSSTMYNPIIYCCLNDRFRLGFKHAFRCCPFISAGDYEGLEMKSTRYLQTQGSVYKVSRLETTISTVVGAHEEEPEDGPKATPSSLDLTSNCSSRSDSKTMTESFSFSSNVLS
readoutType: Ki (nM)
Form entry: value (nM) — number only.

Write down the reported Ki of CON=C(CN(C)C(=O)c1cc(C(F)(F)F)cc(C(F)(F)F)c1)C(CCN1CCC(O)(c2ccccc2)CC1)c1ccc(Cl)c(Cl)c1 (stereo not shown) , test system: NK1 receptor (Homo sapiens, UniProt P25103).
3.6

* * *

- system: UniProt P21452
- Sequence (P21452 whole entry, species assumed): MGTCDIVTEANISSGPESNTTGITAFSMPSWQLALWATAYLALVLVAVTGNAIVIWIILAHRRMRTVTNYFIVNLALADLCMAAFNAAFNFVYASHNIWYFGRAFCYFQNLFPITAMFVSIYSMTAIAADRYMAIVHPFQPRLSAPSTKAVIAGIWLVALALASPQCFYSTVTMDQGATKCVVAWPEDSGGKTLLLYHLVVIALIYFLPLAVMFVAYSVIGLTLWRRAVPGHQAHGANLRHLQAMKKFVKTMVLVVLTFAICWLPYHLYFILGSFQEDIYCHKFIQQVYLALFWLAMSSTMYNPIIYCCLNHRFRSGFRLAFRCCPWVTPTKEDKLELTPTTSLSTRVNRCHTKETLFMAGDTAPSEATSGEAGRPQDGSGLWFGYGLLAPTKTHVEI
readoutType: Ki (nM)
Form entry: value (nM) — number only.

Write down the reported Ki of CON=C(CN(C)C(=O)c1cc(C(F)(F)F)cc(C(F)(F)F)c1)C(CCN1CCC(O)(c2ccccc2)CC1)c1ccc(Cl)c(Cl)c1 (stereo not shown) , test system: UniProt P21452.
9.2
